test_details: inhibitors of TNFa-induced NFkB p65 translocation, primary screen, imaging, HUVEC, MLSMR starter and 10KST1 sets (AID 438);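 also: compound added about 3h40 before a 20 min TNFalpha stimulation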
condition_parameters: HUVEC TNFa-induced p65 nuclear translocation; measured here: nuclei count (cytotoxicity indicator), at 2.08 µM
metric_name: cell count

[
  {
    "compound": "COc1ccc(NC(=O)CSc2nc(C)cc(C(F)(F)F)n2)cc1",
    "observed_result": 648
  },
  {
    "compound": "CC(=O)Nc1ccc(OC(=O)c2cccnc2)cc1",
    "observed_result": 367
  },
  {
    "compound": "Cc1ccc(S(=O)(=O)C2(C(=O)Nc3cccnc3)CC2)cc1",
    "observed_result": 579
  },
  {
    "compound": "O=C(O)C1CC=CCC1C(=O)Nc1cccc(F)c1 (stereo unspecified)",
    "observed_result": 446
  },
  {
    "compound": "COc1ccccc1NC(=O)CSc1nnc(-c2ccncc2)o1",
    "observed_result": 469
  },
  {
    "compound": "COC(=O)Cn1c(=NC(=O)CSCC(=O)Nc2cc(C)on2)sc2ccccc21",
    "observed_result": 610
  }
]
